Molecular target: T1, EsCas13d, nuclease-dead (Eubacterium siraeum, UniProt B0MS50, R295A;H300A;R849A;H854A)
T1 sequence: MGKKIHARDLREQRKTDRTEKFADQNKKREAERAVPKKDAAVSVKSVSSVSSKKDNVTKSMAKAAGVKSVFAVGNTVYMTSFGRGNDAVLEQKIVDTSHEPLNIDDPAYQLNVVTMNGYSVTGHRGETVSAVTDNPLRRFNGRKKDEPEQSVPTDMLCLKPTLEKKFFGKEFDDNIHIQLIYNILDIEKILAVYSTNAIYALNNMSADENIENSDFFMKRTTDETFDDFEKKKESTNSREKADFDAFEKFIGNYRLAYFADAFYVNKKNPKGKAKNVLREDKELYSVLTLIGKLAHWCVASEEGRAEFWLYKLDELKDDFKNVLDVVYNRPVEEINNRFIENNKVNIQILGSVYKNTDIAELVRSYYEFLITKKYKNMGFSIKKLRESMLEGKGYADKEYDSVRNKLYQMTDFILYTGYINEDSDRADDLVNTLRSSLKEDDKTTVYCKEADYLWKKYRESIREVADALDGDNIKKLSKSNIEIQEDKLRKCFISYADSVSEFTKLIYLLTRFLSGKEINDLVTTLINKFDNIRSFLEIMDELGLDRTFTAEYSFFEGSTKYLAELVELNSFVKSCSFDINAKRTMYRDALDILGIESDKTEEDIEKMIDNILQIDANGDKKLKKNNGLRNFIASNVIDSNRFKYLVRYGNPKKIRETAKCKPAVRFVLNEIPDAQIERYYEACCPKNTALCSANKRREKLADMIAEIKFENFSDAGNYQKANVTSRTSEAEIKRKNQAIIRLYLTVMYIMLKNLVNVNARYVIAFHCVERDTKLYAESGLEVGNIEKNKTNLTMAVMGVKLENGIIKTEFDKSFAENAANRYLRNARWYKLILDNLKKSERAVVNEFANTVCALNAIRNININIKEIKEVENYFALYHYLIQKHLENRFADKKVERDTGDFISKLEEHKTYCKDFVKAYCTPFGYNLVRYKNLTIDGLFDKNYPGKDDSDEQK
Assay: crRNA (strand 1, pre-loaded); Mg2+; 40 mM Tris-HCl pH 7.5, 150 mM NaCl, 6 mM MgCl2, 1 mM DTT, 0.1% Tween-20, 0.2 mg/ml BSA; 25 C; 10 min per concentration, then washed
Settings: tags: His6-TwinStrep-SUMO cleaved; N-terminal SNAP kept (SNAP-Surface 488); label: 3' end held by stalled T7 RNA polymerase
Measured pKd values are reported for all entries that follow.
Friendly reminder that pKd comes from taking -log10 of the concentration in mol/L.

Worked cases, pKd given:
binder	testReadout	testValue
target 1 insU 3' of 6,insA 3' of 5 (mixed) RNA 1: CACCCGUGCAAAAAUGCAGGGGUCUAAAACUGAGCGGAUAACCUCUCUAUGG RNA 2: GGGAAUGGAUCCACAUCUACGAAUUCGUACCAUAGAGAGGUUAUCCUGACUCACCGAGAUCGGAAGAGCACACGU	pKd	7.62
target 2 MT 5'PFS GUG 3'PFS UUA (mixed) RNA 1: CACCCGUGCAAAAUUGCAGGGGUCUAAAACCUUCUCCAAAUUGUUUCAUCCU RNA 2: GGGAAUGGAUCCACAUCUACGAAUUCGUGAGGAUGAAACAAUUUGGAGAAGUUAAGAUCGGAAGAGCACACGU	pKd	7.65
target 3 C1A,U2A (mixed) RNA 1: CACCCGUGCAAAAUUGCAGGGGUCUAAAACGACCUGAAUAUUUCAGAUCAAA RNA 2: GGGAAUGGAUCCACAUCUACGAAUUCGUUUUUGAUCUGAAAUAUUCAGGAAUGCAGAUCGGAAGAGCACACGU	pKd	7.31

Ask: Report pKd, nothing else, for this binder: target 2 MT 5'PFS AUU 3'PFS CAA (mixed) RNA 1: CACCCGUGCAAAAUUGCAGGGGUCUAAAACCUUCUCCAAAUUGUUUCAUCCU RNA 2: GGGAAUGGAUCCACAUCUACGAAUUCAUUAGGAUGAAACAAUUUGGAGAAGCAAAGAUCGGAAGAGCACACGU
Reply: 8.30

# credit: paper PMC10786891
